These data points were gathered from PubChem BioAssay AID1159580.

- testDetails: chemical genetic growth profiling, strain panel (AID 1159580);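 note: tested at 20 µM; growth read once vehicle control cultures reached saturation at 30 °C; 1 = growth at the plate median or of vehicle wells; lower values mean less growth of the strain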
- conditionSummary: S. cerevisiae deletion strains, growth OD, locus YGL240W, strain doc1
Hit rate of the full screen: of about 5,500 compounds, about 2,000 (36%) were called active. Roughly 18% stayed inconclusive and do not appear here. Cut-off read from the data, not from the text of the source: active = normalized growth mostly below about 0.91 (no sharp cut-off); inconclusive = no clear call, values can overlap the other calls; inactive = mostly above about 0.92. Some of the results follow.
Could you please pick one outcome from this set? 1 = active, 0 = inactive

compound: C=C1CCC2C(CC2(C)C)C(=O)CCC1O (centres undefined)
qualitativeLabel: 0
--
compound: CCOC(=O)[C@H](CCc1ccccc1)N[C@@H](C)C(=O)N1[C@H](C(=O)O)C[C@@H]2CCC[C@@H]21
qualitativeLabel: 0
--
compound: C[C@H]1CC[C@@H](C(C)(C)O)CC2=C1CC[C@@H]2C
qualitativeLabel: 0
--
compound: O=S1OCC2C(CO1)C1(Cl)C(Cl)=C(Cl)C2(Cl)C1(Cl)Cl (centres undefined)
qualitativeLabel: 0
--
compound: CC(C)NCC(O)c1cc(O)cc(O)c1 (centres undefined)
qualitativeLabel: 0

input: For C=C1CCC(C2CC(=O)OC2=O)C(=O)CCC2C1CC2(C)C (centres undefined) , what call appears in the results of this test?
output: 0

input: For CO[C@@]1(NC(=O)CSCC#N)C(=O)N2C(C(=O)O)=C(CSc3nnnn3C)CSC21 (some centres undefined) , what call appears in the results of this test?
output: 0

input: For CC(C)(Oc1ccc(C2CC2(Cl)Cl)cc1)C(=O)O (centres undefined) , what call appears in the results of this test?
output: 0

input: For CO/N=C(\C(=O)NC1C(=O)N2C(C(=O)OC(C)OC(C)=O)=C(COC(N)=O)CSC12)c1ccco1 (centres undefined) , what call appears in the results of this test?
output: 0

input: For Cn1c(=O)c2[nH]cnc2n(C)c1=O , what call appears in the results of this test?
output: 0

* * *

- testDetails: chemical genetic growth profiling, strain panel (AID 1159580);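 note: tested at 20 µM; growth read once vehicle control cultures reached saturation at 30 °C; 1 = growth at the plate median or of vehicle wells; lower values mean less growth of the strain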
- conditionSummary: S. cerevisiae deletion strains, growth OD, locus YGR092W, strain DBF2, stronger effect = lower value
The campaign covered roughly 5,500 compounds. About 2,000 (36%) were called active. Roughly 18% stayed inconclusive and do not appear here. Some of the results follow.
propertyMeasured: normalized growth
Give bare numbers.

Here are 3 compounds together with their reported answers.
structureSmiles: CC(C)(C)c1ccc(C(=O)NNc2c(Cl)cccc2Cl)cc1
normalized growth: 0.894
//
structureSmiles: Cc1onc(-c2c(Cl)cccc2Cl)c1C(=O)NC(C)(C)CC(C)(C)C
normalized growth: 0.969
//
structureSmiles: CC1(C)OC(=O)C(=Cc2cccn2-c2ccc(OC(F)(F)F)cc2)C(=O)O1
normalized growth: 0.881

Give normalized growth for each listed item.
1. FC(F)(F)c1cccc(-n2c(CSCc3cccc4ccccc34)n[nH]c2=S)c1
2. Cc1nc(-c2ccc(S(=O)(=O)Nc3ccc(Br)cc3Cl)s2)cs1
3. O=C(NNc1ccc(I)cc1)c1cc(Cl)cc(Cl)c1
4. CCCCCCCCCCCC(=O)NOC(=O)c1c(-c2c(Cl)cccc2Cl)noc1C
5. FC(F)(F)c1ccnc(N2CCCN(C(=S)Nc3ccc(Cl)cc3Cl)CC2)n1
6. O=c1c2ccccc2[nH]c(=S)n1-c1cccc(C(F)(F)F)c1
7. CC(C)(C)c1ccc(C(=O)Nc2ccc(C(F)(F)F)cc2)s1
8. Cc1c(C(=S)Nc2ccccc2)sc2ccccc12

output:
[0.952, 0.877, 0.78, 0.586, 0.9, 0.874, 0.966, 0.728]

Give normalized growth for each listed item.
1. Cc1onc(-c2c(Cl)cccc2Cl)c1C(=O)NNc1c(Cl)cccc1Cl
2. Cc1onc(-c2c(F)cccc2Cl)c1C(=O)ON=C1C2CC3CC(C2)CC1C3
3. ClC1=C(C=Nc2ccc(Cl)cc2)CSc2ccc(Cl)cc21
4. CC1(C)OC(=O)C(=Cc2cccn2-c2ccc(C(F)(F)F)cc2)C(=O)O1

output:
1. 0.987
2. 0.982
3. 0.796
4. 0.921

Documented normalized growth of Cc1ccc(NS(=O)(=O)c2ccc(-c3csc(C)n3)s2)c(C)c1 : 0.913
